# Test system: UO-31 renal
# EXPERIMENTAL DETAILS: NCI-60 one-dose screen, 48 h
# STUDY CONDITIONS: 10 µM unless noted
The panel holds about 83,000 compounds, 20% with a hit somewhere; the sample as a whole holds those more often. Active and inactive are the calls of the source. How the source made its calls: active means growth percent below 10; inactive means the rest.
Give your call using only these classes: yes (1) = active, no (0) = inactive

Recorded results for 5 compounds are shown here.
- COMPOUND: "NS(=O)(=O)c1ccc(CCn2c(SCC(=O)c3ccc(Cl)cc3)nc3ccccc3c2=O)cc1"
  ASSIGNED CATEGORY: "no (0)"
- COMPOUND: "Cc1c2cc[nH]c(=O)c2c(C)c2c1[nH]c1cc(OCCN3CCN(C)CC3)ccc12"
  ASSIGNED CATEGORY: "yes (1)"
- COMPOUND: "COc1cc2nc(-c3ccc(C(F)(F)F)cc3)cc(OCCCN3CCOCC3)c2cc1OC"
  ASSIGNED CATEGORY: "no (0)"
- COMPOUND: "Oc1cccc(CCc2ccc(Oc3cc(CCc4cccc(O)c4)cc(O)c3O)cc2)c1"
  ASSIGNED CATEGORY: "no (0)"
- COMPOUND: "CC(=O)c1cc2c(N)c(C(=O)Nc3cccc4ccncc34)sc2nc1C"
  ASSIGNED CATEGORY: "no (0)"

Hi, sorry to bother you, what did the test record for Cc1cc2cc3ccc(N(C)C)cc3nc2cc1N ? no (0)

Next record, please: CC(C)(C)c1cc(C=O)cc(C(C)(C)C)c1O no (0)

Next record, please: N#CC1C(C#N)C2c3ccccc3C=CN2C1C(=O)c1ccc(Br)cc1 (stereo not given) no (0)

Next record, please: CN1CCN(CCNc2nccc(-c3c(-c4cccc(O)c4)nc4sccn34)n2)S1(=O)=O no (0)

Next record, please: Cc1ccc(NS(=O)(=O)c2ccc(-c3cnc(C4CC4)o3)cc2)cc1C(F)(F)F no (0)
